Record form. Attribute: folding stability dG unfold. Fill in for each entry.
test: folding stability dG unfold from chymotrypsin proteolysis; higher = more stable
Give bare numbers, in kcal/mol.

Study these solved cases before continuing.
{"columns": ["RESIDUE STRING", "UNIT ABBREVIATION", "folding stability dG unfold"],
 "data": [
  ["SAGGSAGGSAGGLPPDVRLRVRITRPDGTVLEFDAPADVEIFFPDVPPEWRIEVDAEDVSAGGSAGGSAGGS [r10_774_TrMRF]", "kcal/mol", 2.49],
  ["SAGGMTETATTTTTLPDGTVVTTGTTTVTEGSSTTTTTFTTVTTVAPVPPPPYPPAPLPWPEDPVLASAGGS [r8_269_JUSTAS]", "kcal/mol", 0.142],
  ["SAGGSAGGSKKKKKPKKKKYIVIKVDMSLEEVKKLISKLLGFEEGEKIEIVKVDPENKYIVIKSAGGSAGGS [r12_815_TrROS_Hall]", "kcal/mol", 2.35],
  ["SAGGKKKKVITVEVPPEATAEELLAALKKADKVFIRTKDGKVREIKVGEKVSPEELKVKPGDTVEIYVSAGG [r13_399_TrROS_Hall]", "kcal/mol", 1.74],
  ["SAGMLVRVTLKYPDGKTIKIPFPYAKILSEETSNNETTFTIDSPESADKAVEAIKKEYPDIEVKVEPLESAG [r5_453_JUSTAS]", "kcal/mol", 2.46]
]}

For each of the sequences below, state folding stability dG unfold.
1. SMFRIRFKDGSEFDIELNEDGELTITNKNGKKITLTFKTKEEALKAAEELKKKYPNMKVEIEEVSPEELKSA [r9_1206_TrROS_Hall]
2. SAGGPVLVLVEVEAGFDGRPRLRRLVLPVELRPDGTVDLDAVRRAVEELLPPDWRILRIEVVPPDAPFSAGG [r13_504_TrMRF]
3. SAGMKTKTIEETITFTFPPGNPPDLEEIKEKLKSKGVKVLKVEMFEPPGDYYVVTAKVVKELEPSELLSSAG [r5_167_JUSTAS]
4. SAGKQEIKVEAVFPGDTLEEFMEFIREFLAEQGLKIEPTEFEIDKVQPMPGGPMIRVTAWIKIEPPDDSAGG [r19_325_TrROS]

Out:
[3.5, 1.46, 2.27, 2.95]

====

assay: folding stability dG unfold from chymotrypsin proteolysis; higher = more stable
Record form. Attribute: folding stability dG unfold. Fill in for each entry.
Answers are plain numbers, in kcal/mol.

Study these solved cases before continuing.
{"columns": ["RESIDUE STRING", "folding stability dG unfold / kcal/mol"],
 "data": [
  ["SAGGSAGGSTADALKDLPPGAKIEVEPHPIPNEDGWVYRQHYIKIEDPNKTVELPVIIPIPLPSAGGSAGGS [r12_892_TrROS]", -0.0369],
  ["SAGGSAGGSAGGPENDWREVDIKIKFENPEGKPIFDIKIYYMPDGDIMIYFPNGNWIWISAGGSAGGSAGGS [r10_972_TrROS]", 4.14]
]}

For each of the sequences below, state folding stability dG unfold.
1. SAGGSAGGMLPAEELADYLEKNPGIEIEDIEPPDPGYITVKIKFPRPDPNGEKHKVEVTIQFPVSAGGSAGG [r6_154_TrROS]
2. SAGGSAGGPEIEVRFPDGWYVKITVERPEDGKVTVKVEVYHPDPNGKPIPPETAKNLAKEFLNKSAGGSAGG [r6_235_TrROS]
3. SAGELAEKLAEELRKLFPNAEVEVEVVEVKEDYVVVKIRLRVVDEETGEEKTVEVELTLVLKPGEILPSAGG [r19_8_TrROS_Hall]
4. SAGGSAGGSKPEYVLRVKIYNEETGELVEEIEITVKSKEEALKALKKLLPKDNVKIEVEILPPSAGGSAGGS [r12_578_TrROS_Hall]
5. SAGGSAMKIKPGETVTIKVKNKETGEWFEAKIVKVDEEKGEIEIEVEVNGKKYTFTIPAEDIEIVESAGGSA [r15_381_TrROS_Hall]
6. SAGGSAKTKTITLKIKIVDPKTNKVYEFEIKIEVELTLDKNGKLTAKIKKIEIKAPKNSPLLKKLLSAGGSA [r15_258_TrROS_Hall]
7. SAGGSAGGSEIKIEKAEITVEYDEETGVFRATITLPDGYRITAEFRLRPDGSLELTRVEIEEVSAGGSAGGS [r12_111_TrROS_Hall]

Out:
1
0.294
4.66
3.09
3.12
3.18
5.37

In: Indicate its recorded folding stability dG unfold; the sequence in question is SAGGMKIKIEIEPEGDVVKVKIEIELPEGKVEVVEEEEAEVFEDGKIKVRFRVRRKDGPEFEFELDISAGGS [r8_449_TrMRF]
Out: 4.41
